# reported IC50; entries follow
# TEST_TARGET: human α1G T-type channels (Homo sapiens, UniProt O43497)
# Construct: expressed in transfected cells; host or cells: HEK 293
# Sequence (O43497 whole entry): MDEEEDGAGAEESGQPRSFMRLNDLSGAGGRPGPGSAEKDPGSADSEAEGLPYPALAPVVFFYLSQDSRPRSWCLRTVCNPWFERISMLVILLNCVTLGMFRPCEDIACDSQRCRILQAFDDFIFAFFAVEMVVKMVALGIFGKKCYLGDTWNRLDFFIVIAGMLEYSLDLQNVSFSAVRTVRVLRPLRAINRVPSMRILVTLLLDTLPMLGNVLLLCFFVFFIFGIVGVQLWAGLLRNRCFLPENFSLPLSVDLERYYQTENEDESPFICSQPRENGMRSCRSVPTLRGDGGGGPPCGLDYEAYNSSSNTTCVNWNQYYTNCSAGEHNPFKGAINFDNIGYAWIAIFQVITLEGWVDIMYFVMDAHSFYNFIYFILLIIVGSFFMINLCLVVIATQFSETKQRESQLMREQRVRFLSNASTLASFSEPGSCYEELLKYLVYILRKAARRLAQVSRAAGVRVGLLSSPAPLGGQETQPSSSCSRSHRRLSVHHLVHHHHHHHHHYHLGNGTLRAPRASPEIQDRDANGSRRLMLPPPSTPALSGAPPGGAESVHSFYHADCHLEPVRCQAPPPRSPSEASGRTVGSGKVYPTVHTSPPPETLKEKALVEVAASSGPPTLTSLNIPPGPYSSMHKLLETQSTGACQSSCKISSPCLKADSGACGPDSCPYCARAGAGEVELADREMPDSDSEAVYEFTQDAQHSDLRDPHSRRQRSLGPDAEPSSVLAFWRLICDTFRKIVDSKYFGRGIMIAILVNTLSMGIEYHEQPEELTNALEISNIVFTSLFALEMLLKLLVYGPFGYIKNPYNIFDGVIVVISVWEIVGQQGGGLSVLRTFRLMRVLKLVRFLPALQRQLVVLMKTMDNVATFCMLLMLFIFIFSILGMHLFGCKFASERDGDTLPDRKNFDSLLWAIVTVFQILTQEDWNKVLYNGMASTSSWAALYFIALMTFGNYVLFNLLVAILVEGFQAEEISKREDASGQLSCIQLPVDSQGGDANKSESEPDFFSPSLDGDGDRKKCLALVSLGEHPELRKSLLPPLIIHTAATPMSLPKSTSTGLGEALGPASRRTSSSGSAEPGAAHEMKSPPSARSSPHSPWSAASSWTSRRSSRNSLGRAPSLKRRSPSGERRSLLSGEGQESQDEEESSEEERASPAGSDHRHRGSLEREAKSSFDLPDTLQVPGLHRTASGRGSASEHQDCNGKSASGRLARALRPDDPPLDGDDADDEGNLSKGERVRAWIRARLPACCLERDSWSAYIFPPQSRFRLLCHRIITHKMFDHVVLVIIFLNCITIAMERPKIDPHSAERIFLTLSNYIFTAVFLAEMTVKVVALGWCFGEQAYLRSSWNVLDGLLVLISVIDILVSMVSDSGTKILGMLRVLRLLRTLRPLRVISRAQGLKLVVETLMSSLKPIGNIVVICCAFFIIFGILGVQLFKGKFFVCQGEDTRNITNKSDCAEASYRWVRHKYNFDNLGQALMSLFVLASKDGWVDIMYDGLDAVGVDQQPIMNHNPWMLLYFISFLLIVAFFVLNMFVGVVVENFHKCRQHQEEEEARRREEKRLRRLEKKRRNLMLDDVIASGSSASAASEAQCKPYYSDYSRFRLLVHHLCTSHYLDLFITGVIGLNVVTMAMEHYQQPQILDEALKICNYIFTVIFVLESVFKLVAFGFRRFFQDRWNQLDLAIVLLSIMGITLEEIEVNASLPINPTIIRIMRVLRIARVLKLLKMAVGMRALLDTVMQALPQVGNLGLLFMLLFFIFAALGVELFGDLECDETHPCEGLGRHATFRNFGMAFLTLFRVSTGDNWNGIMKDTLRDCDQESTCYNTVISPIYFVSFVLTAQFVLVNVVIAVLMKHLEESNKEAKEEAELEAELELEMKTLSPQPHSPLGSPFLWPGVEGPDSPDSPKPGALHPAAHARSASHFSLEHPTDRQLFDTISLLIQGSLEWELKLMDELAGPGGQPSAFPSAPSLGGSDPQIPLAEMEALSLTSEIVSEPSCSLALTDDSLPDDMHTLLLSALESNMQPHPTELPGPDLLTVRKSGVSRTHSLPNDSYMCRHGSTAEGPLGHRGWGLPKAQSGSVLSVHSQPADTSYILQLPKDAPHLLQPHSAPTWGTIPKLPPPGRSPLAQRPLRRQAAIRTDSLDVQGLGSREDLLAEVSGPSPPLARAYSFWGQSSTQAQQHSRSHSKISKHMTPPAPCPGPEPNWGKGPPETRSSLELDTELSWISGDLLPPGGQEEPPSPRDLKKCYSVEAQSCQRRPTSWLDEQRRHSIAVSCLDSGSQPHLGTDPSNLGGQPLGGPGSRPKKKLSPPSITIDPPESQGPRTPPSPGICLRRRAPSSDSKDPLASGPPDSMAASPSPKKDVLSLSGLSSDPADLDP
# EXPERIMENTAL_PROTOCOL: T-type calcium channel block, whole cell patch clamp in HEK cells (α1G)
# Format: cell-based
# TEST_SETTINGS: HEK cells, patch clamp, mainly non-inactivated protocol; values above 10 μM shown as 10 μM, below 0.30 μM shown as 0.30 μM; read-out: T-type Calcium Channel Block α1G IC50
MEASURE_NAME: IC50

molecule="O=C(NCC1CCN(CC(=O)N2CCC[C@@H]2C(F)(F)F)CC1)c1cccc(Cl)c1 [Compound 507]" measure_name=IC50 measured="2980 nM"
molecule="CC(C)(C)NC(=O)CN1CCC(CNC(=O)c2cccc(C(F)(F)F)c2)CC1 [Compound 371]" measure_name=IC50 measured="< 300 nM"
molecule="O=C(NCC1CCN(CCNC(=O)C2(C(F)(F)F)CCC2)CC1)c1cccc(Cl)c1 [Compound 512]" measure_name=IC50 measured="< 300 nM"
molecule="CC1CCCCC1NCC(=O)N1CCC(CNC(=O)c2cc(F)cc(C(F)(F)F)c2)CC1 (stereo not drawn) [Compound 274]" measure_name=IC50 measured="< 300 nM"
molecule="O=C(NCC1CCN(CCNS(=O)(=O)C2CC2)CC1)c1cc(F)cc(C(F)(F)F)c1 [Compound 230]" measure_name=IC50 measured="4760 nM"
molecule="CN(C(=O)CN1CCC(CNC(=O)c2cc(F)cc(Cl)c2)CC1)C(C)(C)C [Compound 544]" measure_name=IC50 measured="< 300 nM"
molecule="CC(C)(C)ONC(=O)CN1CCC(CNC(=O)c2cc(C(F)(F)F)cc(C(F)(F)F)c2)CC1 [Compound 560]" measure_name=IC50 measured="470 nM"
molecule="CN(CCN1CCC(CNC(=O)c2cc(F)cc(C(F)(F)F)c2)CC1)C(=O)C1(C(F)(F)F)CC1 [Compound 520]" measure_name=IC50 measured="< 300 nM"
molecule="CC(C)(C)OC(=O)NCCN1CCC(CNC(=O)c2cc(Cl)cc(Cl)c2)CC1 [Compound 43]" measure_name=IC50 measured="< 300 nM"
